Biological target: human VPAC2 (Homo sapiens, UniProt P41587)
Construct: expressed in transfected cells
Sequence (P41587 24-438): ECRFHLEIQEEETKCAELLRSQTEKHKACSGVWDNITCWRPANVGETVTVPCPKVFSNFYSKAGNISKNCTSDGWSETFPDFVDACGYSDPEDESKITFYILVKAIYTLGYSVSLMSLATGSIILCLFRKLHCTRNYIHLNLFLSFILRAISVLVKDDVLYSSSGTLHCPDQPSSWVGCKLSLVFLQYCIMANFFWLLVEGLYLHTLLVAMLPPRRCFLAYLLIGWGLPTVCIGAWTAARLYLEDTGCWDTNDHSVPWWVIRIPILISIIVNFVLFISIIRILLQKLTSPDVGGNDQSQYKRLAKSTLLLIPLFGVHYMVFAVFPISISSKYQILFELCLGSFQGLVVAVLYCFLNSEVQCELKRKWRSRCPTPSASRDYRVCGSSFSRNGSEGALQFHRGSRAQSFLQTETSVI
Test: Alpha screen cAMP in vitro potency, human VPAC2 receptor
Assay type: cell-based
Details: cAMP generation; single result from two analyses performed in a single run; read-out: Human VPAC2 Receptor: Alpha Screen EC50
Where no end group is shown, it is not given here. [ ]: non-standard residue; d: D form. The star is where a group is joined. Hexanoyl = CCCCCC(=O)*; Aib = CC(C)(N)C(=O)O
measured-attribute: pEC50
Give bare numbers, as −log10 of the molar value.

Please review the following examples before continuing.
- substance: "Hexanoyl-HSDAVFTDNYTRLLAKLALQKYLQSIKNKRYGGPSSGAPPPC [Agonist P164]"
  result-number: 9.96
- substance: "Hexanoyl-HSDAVFTDNYTRLR[Aib]QIAA[Aib]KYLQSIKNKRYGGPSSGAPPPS [Agonist P322]"
  result-number: 9.66

Please state, for each entry, its recorded pEC50.
1. Hexanoyl-HSDAVFTDNYTRLR[Aib]QVAA[Aib]AYLQSIKNKRYGGPSSGAPPPS [Agonist P341]
2. Hexanoyl-HSDAVFTDNYTRLRKQVAAKKYLQQIKNKRYGGPSSGAPPPS [Agonist P124]

1: 9.42; 2: 10.05

----------
experiment: Rat serum stability studies (remaining active peptide by DiscoveRx cAMP on CHO-VPAC2 cells); format: in vitro ADME
Where no end group is shown, it is not given here. The star is where a group is joined. Hexanoyl = CCCCCC(=O)*
measured-attribute: Rat Serum Stability (estimated purity in % after 18 hours)

Example cases with answers are listed next.
- substance: "Hexanoyl-HSDAVFTYNYTRLRKQVAAKKYLQSIKNKRYGGPSSGAPPPS [Agonist P163]"
  result: "<1.25%"
- substance: "Hexanoyl-HSDAVFTDNYTRLRKQVAAKKYTQSIKNKRYGGPSSGAPPPS [Agonist P232]"
  result: "<5.00%"

Fill in Rat Serum Stability (estimated purity in % after 18 hours) for record Hexanoyl-HSDAVFTDNYTRLRKQVAAKKILQSIKNKRYGGPSSGAPPPS [Agonist P133] <2.00%

----------
target: human VPAC2 (Homo sapiens); construct: expressed in transfected cells; assay: Alpha screen cAMP in vitro potency, human VPAC2 receptor; format: cell-based; settings: cAMP generation; single result from two analyses performed in a single run; read-out: Human VPAC2 Receptor: Alpha Screen EC50
Where no end group is shown, it is not given here. [ ]: non-standard residue; d: D form. The star is where a group is joined. Cit = NC(=O)NCCC[C@H](N)C(=O)O; Nle = CCCC[C@H](N)C(=O)O; Orn = NCCC[C@H](N)C(=O)O; Hexanoyl = CCCCCC(=O)*; Aib = CC(C)(N)C(=O)O
Give EC50 for every item shown.
Give bare numbers, in nM.

Examples with their reported EC50 follow.
- substance: "Hexanoyl-HSDAVFTDNYTRLR[Aib]Q[Nle]AA[Aib]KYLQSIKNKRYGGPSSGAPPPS [Agonist P325]"
  EC50 / nM: 0.24
- substance: "Hexanoyl-HSDAVFTDNYTRLLAKLAAQKYLQSIKNKRYGGPSSGAPPPS [Agonist P197]"
  EC50 / nM: 0.09
- substance: "Hexanoyl-HSDAVFTDNYTRLRKQVAAKKYAQSIKNKRYGGPSSGAPPPS [Agonist P235]"
  EC50 / nM: 0.82
- substance: "Hexanoyl-HSDAVFTDNYTRLRKQVAAKKY[Aib]QSIKNKRYGGPSSGAPPPS [Agonist P236]"
  EC50 / nM: 0.12
- substance: "Hexanoyl-HSDAVFTDNYTRLRKQVAAKKYIQSIKNKRYGGPSSGAPPPS [Agonist P233]"
  EC50 / nM: 0.11
- substance: "Hexanoyl-HSDAVFTDNYTRLRKQVAALKYLQSIKNKRYGGPSSGAPPPS [Agonist P151]"
  EC50 / nM: 0.07
- substance: "Hexanoyl-HSDAVFTDNYTRLLAQLALQKYLQSIKNKRYGGPSSGAPPPS [Agonist P195]"
  EC50 / nM: 0.25
- substance: "Hexanoyl-HSDAVFTDNYTRL[Cit][Aib]QVAA[Aib]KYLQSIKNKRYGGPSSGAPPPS [Agonist P320]"
  EC50 / nM: 0.49
- substance: "Hexanoyl-HSDAVFTDNYTRLRKQVAAKKYLQLIKNKRYGGPSSGAPPPS [Agonist P114]"
  EC50 / nM: 0.14
- substance: "Hexanoyl-HSDAVFTDNYTRL[Aib]KQVAAQKYLQSIKNKRYGGPSSGAPPPS [Agonist P243]"
  EC50 / nM: 0.28

Could I get EC50 for every one of these entries?
1. Hexanoyl-HVDAVFTDNYTRLRKQVAAKKYLQSIKNKRYGGPSSGAPPPS [Agonist P99]
2. Hexanoyl-HSDAVFTDNYTRLRKQVAAKKYLQSVKNKRYGGPSSGAPPPS [Agonist P109]
3. Hexanoyl-HSDAVFTDNYTRLRKQVAAKKYLQIIKNKRYGGPSSGAPPPS [Agonist P113]
4. Hexanoyl-HSDAVFTDNYTRLR[Orn]QVAAKKYLQSIKNKRYGGPSSGAPPPS [Agonist P307]
5. Hexanoyl-HSDA[Aib]FTDNYTRLRKQVAAKKYLQSIKNKRYGGPSSGAPPPS [Agonist P212]
6. Hexanoyl-HSDAVFTDNYTRLRKQVAGKKYLQSIKNKRYGGPSSGAPPPS [Agonist P275]
7. Hexanoyl-HSDAVFTDNYTRLAKQVAAKKYLQSIKNKRYGGPSSGAPPPS [Agonist P173]
8. Hexanoyl-HSDAVFTDNYTRLRKQVAAKKYLQSIKNKRGGPSSGAPPPS [Agonist P123]

1. 0.14
2. 0.22
3. 0.26
4. 0.32
5. 0.12
6. 0.32
7. 0.25
8. 0.12

Look at each substance and report its EC50.
1. Hexanoyl-HSDAVFTDNYTRLRK(Ac)QVAAKK(Ac)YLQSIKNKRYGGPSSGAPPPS [Agonist P194]
2. Hexanoyl-HSDAVFTDNYTRLRKQVAAKKYVQSIKNKRYGGPSSGAPPPS [Agonist P234]
3. Hexanoyl-HSDAVFTDNYTRLRKQVAAIKYLQSIKNKRYGGPSSGAPPPS [Agonist P149]
4. Hexanoyl-HSDAVFTDNYTRLRKQVAAKKALQSIKNKRYGGPSSGAPPPS [Agonist P229]
5. Hexanoyl-HSDAVFTDNYTRLRKQVAAKKFLQSIKNKRYGGPSSGAPPPS [Agonist P130]
6. Hexanoyl-HSDAVFTDNYTRLRKQVAAKKYLQVIKNKRYGGPSSGAPPPS [Agonist P116]
7. Hexanoyl-HSDAVFTDQYTRLR[Aib]QVAA[Aib]KYLQSIKQKRYGGPSSGAPPPS [Agonist P315]

1: 0.13; 2: 0.16; 3: 0.41; 4: 2.6; 5: 0.77; 6: 0.12; 7: 0.19

----------
target: human VPAC1 (Homo sapiens); test: Filter binding assay, membranes of cells transiently transfected with human VPAC1, 125I-labeled VIP tracer (Table 2); set-up: expressed in transfected cells; conditions: read-out: Human VPAC1 Receptor Binding
Sequence (P32241 31-457): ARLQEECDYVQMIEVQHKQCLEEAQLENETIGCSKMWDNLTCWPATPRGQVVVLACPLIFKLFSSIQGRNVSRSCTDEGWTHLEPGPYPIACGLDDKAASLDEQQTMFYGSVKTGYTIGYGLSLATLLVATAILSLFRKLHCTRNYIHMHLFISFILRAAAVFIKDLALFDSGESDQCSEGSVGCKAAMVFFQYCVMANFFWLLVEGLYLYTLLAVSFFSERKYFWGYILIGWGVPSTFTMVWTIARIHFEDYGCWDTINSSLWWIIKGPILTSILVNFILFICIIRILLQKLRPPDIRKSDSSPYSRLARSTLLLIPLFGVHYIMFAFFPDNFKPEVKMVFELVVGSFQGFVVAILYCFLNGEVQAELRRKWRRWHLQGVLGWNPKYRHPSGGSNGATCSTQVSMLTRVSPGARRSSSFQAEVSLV
Where no end group is shown, it is not given here. The star is where a group is joined. Hexanoyl = CCCCCC(=O)*
Field: pIC50. Provide a value for each of the substances that follow.
Give bare numbers, as −log10 of the molar value.

Please review the entries below; each comes with its answer.
- substance: "Hexanoyl-HSDAVFTDNYTRLLKQVAAKKYLQSIKNKRYGGPSSGAPPPS [Agonist P174]"
  target: "human VPAC1 (Homo sapiens)"
  pIC50: 6.52
- substance: "Hexanoyl-HSDAVFTDNYTRLRKQVAAKKYLQTIKNKRYGGPSSGAPPPS [Agonist P115]"
  target: "human VPAC1 (Homo sapiens)"
  pIC50: 6.57

Provide pIC50 values for the following items, in order.
1. Hexanoyl-HSDAVFTDNYTRLRKQVAAKKILQSIKNKRYGGPSSGAPPPS [Agonist P133]
2. Hexanoyl-HSDAVFTDNYTRLRKQVAAKKYLQWIKNKRYGGPSSGAPPPS [Agonist P117]

[6.33, 6.35]
